STUDY_TARGET: GST tagged Bclw ΔC29 protein (Homo sapiens)
Construct: GST tagged Bclw ΔC29 protein
Sequence (Q92843 1-164 limits assumed): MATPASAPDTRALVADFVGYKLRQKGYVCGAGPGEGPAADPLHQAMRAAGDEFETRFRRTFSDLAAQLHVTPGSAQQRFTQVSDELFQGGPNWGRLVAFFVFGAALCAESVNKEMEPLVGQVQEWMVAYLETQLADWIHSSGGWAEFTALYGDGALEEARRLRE
PROTOCOL: Alphascreen GST competition assay, Bcl-w vs biotinylated Bim BH3-26 peptide
Assay type: binding
TEST_CONTEXT: footnote a: tested in a separate experiment; read-out: Bcl-wΔ29 IC50
pIC50: −log10 of the molar value.
EXPERIMENTAL_ENDPOINT: pIC50

>>> df
                                   compound                              study_target  experimental_endpoint  numeric_value
0  O=C(O)[C@H](CSCc1ccccc1)NC(=O)N(CC1CCCCC1)C(=O)c1cccc(-c2ccccc2)c1  GST tagged Bclw ΔC29 protein (Homo sapiens)                  pIC50           4.85
1  O=C(O)[C@H](CSCc1ccccc1)NC(=O)N(C(=O)c1cccc(-c2ccccc2)c1)C1CCCCC1  GST tagged Bclw ΔC29 protein (Homo sapiens)                  pIC50           4.59

* * *

STUDY_TARGET: GST tagged Mcl-1 protein (Homo sapiens, UniProt Q07820)
Sequence (Q07820 whole entry): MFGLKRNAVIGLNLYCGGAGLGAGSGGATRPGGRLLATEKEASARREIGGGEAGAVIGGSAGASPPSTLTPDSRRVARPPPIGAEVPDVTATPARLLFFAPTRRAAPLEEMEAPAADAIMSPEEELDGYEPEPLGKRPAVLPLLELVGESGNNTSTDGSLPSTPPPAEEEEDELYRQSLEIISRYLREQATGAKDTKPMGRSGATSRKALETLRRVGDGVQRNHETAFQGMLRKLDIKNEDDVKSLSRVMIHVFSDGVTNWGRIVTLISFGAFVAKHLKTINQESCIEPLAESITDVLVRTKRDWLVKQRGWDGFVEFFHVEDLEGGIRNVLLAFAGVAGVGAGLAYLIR
EXPERIMENTAL_ENDPOINT: IC50 (µM)

In [3]: df
Out[3]:
                                   compound  numeric_value
0  CCCN(C(=O)N[C@@H](CSCc1ccccc1)C(=O)O)C(=O)c1cccc(/C=C/c2ccccc2)c1            161
1  CCCN(C(=O)CCCc1ccccc1)C(=O)N[C@@H](CSCc1ccccc1)C(=O)O            251
2  CCCN(C(=O)N[C@@H](CSCc1ccccc1)C(=O)O)C(=O)c1cccc(C#Cc2ccc(Br)cc2)c1            181

* * *

STUDY_TARGET: GST tagged Bclw ΔC29 protein (Homo sapiens, UniProt Q92843)
Construct: GST tagged Bclw ΔC29 protein
PROTOCOL: Alphascreen GST competition assay, Bcl-w vs biotinylated Bim BH3-26 peptide
Format: binding
TEST_CONTEXT: competition with biotinylated Bim BH3-26 peptide (3.0 nM), Bcl-w 0.05 nM; n.b. = not binding in the assay conditions; read-out: Bcl-wΔ29 IC50
pIC50: −log10 of the molar value.
EXPERIMENTAL_ENDPOINT: pIC50

>>> df
                                   compound  numeric_value
0  CCCN(C(=O)CCCc1ccccc1)C(=O)N[C@@H](CSCc1ccccc1)C(=O)O           3.99
1  CCCN(C(=O)N[C@@H](CSCc1ccccc1)C(=O)O)C(=O)c1cccc(CCc2ccccc2)c1           4.31
2  CCCN(C(=O)N[C@@H](CSCCCc1ccccc1)C(=O)O)C(=O)c1cccc(C#Cc2ccccc2)c1           4.46
3  CC(C)CCN(C(=O)N[C@@H](CSCc1ccccc1)C(=O)O)C(=O)c1ccc(-c2ccccc2)cc1           4.31
4  CCCN(C(=O)N[C@@H](CSCc1ccccc1)C(=O)O)C(=O)c1cccc(/C=C/c2ccccc2)c1           4.00
